# Test system: Human immunodeficiency virus 1
# Protocol details: Resistance index, ratio of EC50 for rilpivirine resistant HIV1 harboring reverse transcriptase E138K mutant infected in human TZM-bl cells to EC50 for HIV1 NL4-3 infected in human TZM-bl cells
# Assay type: functional
Endpoint label: Ratio EC50
The response must contain the number and no unit.

// known answers, use as guide
Molecular string | Tested on | Ratio EC50
CCNC(=O)c1cc(N)c(Nc2ccc(C#N)cc2)cc1Oc1c(C)cc(CCC#N)cc1C | Human immunodeficiency virus 1 | 1.9
Cc1cc(CCC#N)cc(C)c1Oc1cc(Nc2ccc(C#N)cc2)c(N)cc1Cl | Human immunodeficiency virus 1 | 1.7
Cc1cc(CCC#N)cc(C)c1Oc1ccc(N)c(Nc2ccc(C#N)cc2)c1 | Human immunodeficiency virus 1 | 7.1
CNC(=O)OCc1cc(N)c(Nc2ccc(C#N)cc2)cc1Oc1c(C)cc(CCC#N)cc1C | Human immunodeficiency virus 1 | 5.8
COCc1cc(N)c(Nc2ccc(C#N)cc2)cc1Oc1c(C)cc(CCC#N)cc1C | Human immunodeficiency virus 1 | 9.2

Enquiry: Need Ratio EC50, item `Cc1cc(CCC#N)cc(C)c1Oc1cc(Nc2ccc(C#N)cc2)c(N)cc1COC(=O)C1CC1`
Return: 14

Enquiry: Need Ratio EC50, item `Cc1cc(CCC#N)cc(C)c1Oc1cc(Nc2ccc(C#N)cc2)c(N)cc1CN(C)C`
Return: 8.6

Enquiry: Need Ratio EC50, item `CCOCc1cc(N)c(Nc2ccc(C#N)cc2)cc1Oc1c(C)cc(CCC#N)cc1C`
Return: 6.2

Enquiry: Need Ratio EC50, item `COC(=O)c1cc(N)c(Nc2ccc(C#N)cc2)cc1Oc1c(Br)cc(CCC#N)cc1OC`
Return: 1.9

Enquiry: Need Ratio EC50, item `CNC(=O)c1cc(N)c(Nc2ccc(C#N)cc2)cc1Oc1c(Br)cc(CCC#N)cc1OC`
Return: 2.2
